Data origin, for the record: ChEMBL document CHEMBL1149188

Target: Bifunctional dihydrofolate reductase-thymidylate synthase (Toxoplasma gondii, UniProt Q07422)
Experiment: Concentration required to inhibit the Toxoplasma gondii Dihydrofolate reductase by 50% was determined; Range: 20-23
parameter.measured: pIC50
Answers are plain numbers, as −log10 of the molar value.

So what does the record say about pIC50 for Nc1nc(N)c2nc(CN3c4ccccc4C=Cc4cc(OCCCCC(=O)O)ccc43)cnc2n1 ?
7.68

---

Molecular target: Bifunctional dihydrofolate reductase-thymidylate synthase (Toxoplasma gondii, UniProt Q07422)
Test: Concentration required to inhibit the Toxoplasma gondii Dihydrofolate reductase by 50% was determined; Range: 23-30
parameter.measured: IC50 (nM)
Give bare numbers, in nM.

So what does the record say about IC50 for Nc1nc(N)c2nc(CN3c4ccccc4C=Cc4cc(O)ccc43)cnc2n1 ?
26

---

Target: Bifunctional dihydrofolate reductase-thymidylate synthase (Toxoplasma gondii)
Sequence (Q07422 whole entry): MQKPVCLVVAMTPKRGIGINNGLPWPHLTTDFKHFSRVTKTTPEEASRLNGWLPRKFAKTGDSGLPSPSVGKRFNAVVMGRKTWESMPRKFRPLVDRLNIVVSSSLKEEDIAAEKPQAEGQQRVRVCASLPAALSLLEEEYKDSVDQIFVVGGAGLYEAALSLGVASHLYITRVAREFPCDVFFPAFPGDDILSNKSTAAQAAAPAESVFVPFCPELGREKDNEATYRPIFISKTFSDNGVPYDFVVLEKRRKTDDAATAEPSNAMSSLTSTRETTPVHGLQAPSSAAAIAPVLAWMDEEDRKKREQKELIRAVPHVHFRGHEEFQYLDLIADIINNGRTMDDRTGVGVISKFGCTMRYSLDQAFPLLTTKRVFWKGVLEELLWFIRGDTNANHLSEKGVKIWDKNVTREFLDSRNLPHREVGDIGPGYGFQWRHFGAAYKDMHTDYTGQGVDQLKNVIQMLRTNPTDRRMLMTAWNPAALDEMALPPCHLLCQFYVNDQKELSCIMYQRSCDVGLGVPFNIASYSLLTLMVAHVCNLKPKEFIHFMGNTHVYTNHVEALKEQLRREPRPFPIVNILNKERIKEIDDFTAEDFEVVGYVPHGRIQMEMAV
parameter.measured: IC50
Your answer should be a number followed by the unit of measure.

So what does the record say about IC50 for Nc1nc(N)c2nc(CN3c4ccccc4C=Cc4cc(OCc5ccc(C(=O)O)cc5)ccc43)cnc2n1 ?
22 nM

---

Target: Dihydrofolate reductase (Pneumocystis carinii)
Test: Concentration required to inhibit the Pneumocystis carinii Dihydrofolate reductase by 50% was determined; Range: 19-29
parameter.measured: IC50 (nM)
Give bare numbers, in nM.

So what does the record say about IC50 for Nc1nc(N)c2nc(CN3c4ccccc4C=Cc4cc(OCCC(=O)O)ccc43)cnc2n1 ?
24

---

Target: Dihydrofolate reductase (Pneumocystis carinii)
parameter.measured: IC50 (nM)
Answers are plain numbers, in nM.

Give the reported IC50 for Nc1nc(N)c2nc(CN3c4ccccc4C=Cc4cc(OCc5ccc(C(=O)O)cc5)ccc43)cnc2n1 (system: Dihydrofolate reductase (Pneumocystis carinii)).
1

---

Biological target: Bifunctional dihydrofolate reductase-thymidylate synthase (Toxoplasma gondii)
Sequence (Q07422 whole entry): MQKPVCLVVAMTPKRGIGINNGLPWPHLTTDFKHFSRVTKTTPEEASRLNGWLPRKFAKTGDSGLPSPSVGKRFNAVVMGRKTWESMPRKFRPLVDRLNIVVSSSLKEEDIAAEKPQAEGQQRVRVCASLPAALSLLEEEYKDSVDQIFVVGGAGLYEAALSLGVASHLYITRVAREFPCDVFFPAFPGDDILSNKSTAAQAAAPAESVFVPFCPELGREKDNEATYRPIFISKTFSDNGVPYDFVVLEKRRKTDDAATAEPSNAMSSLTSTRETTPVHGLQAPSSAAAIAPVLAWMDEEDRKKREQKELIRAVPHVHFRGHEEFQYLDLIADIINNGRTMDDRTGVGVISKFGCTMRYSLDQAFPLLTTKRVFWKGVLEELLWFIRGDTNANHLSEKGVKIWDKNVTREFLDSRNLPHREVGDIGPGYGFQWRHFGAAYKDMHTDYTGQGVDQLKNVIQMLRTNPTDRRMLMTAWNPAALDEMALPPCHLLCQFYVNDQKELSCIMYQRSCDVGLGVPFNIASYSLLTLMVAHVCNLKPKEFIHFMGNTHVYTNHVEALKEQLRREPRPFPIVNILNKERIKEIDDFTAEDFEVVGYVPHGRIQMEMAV
Assay: Concentration required to inhibit the Toxoplasma gondii Dihydrofolate reductase by 50% was determined; […]
parameter.measured: pIC50
Numbers only, as −log10 of the molar value.

So what does the record say about pIC50 for Nc1nc(N)c2nc(CN3c4ccccc4C=Cc4ccccc43)cnc2n1 ?
7.41

---

Biological target: Dihydrofolate reductase (Mycobacterium avium, UniProt O30463)
Sequence (O30463 whole entry): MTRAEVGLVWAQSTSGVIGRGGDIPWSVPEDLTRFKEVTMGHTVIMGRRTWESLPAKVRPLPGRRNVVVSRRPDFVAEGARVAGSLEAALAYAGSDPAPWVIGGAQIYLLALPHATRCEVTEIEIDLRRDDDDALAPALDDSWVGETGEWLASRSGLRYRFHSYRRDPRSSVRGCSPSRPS
Assay: Concentration required to inhibit the Mycobacterium avium Dihydrofolate reductase by 50% was determined
parameter.measured: IC50

Here is how some molecules turned out for IC50.
CCOc1cc(Cc2cnc(N)nc2N)cc(OCC)c1-n1cccc1 [EPIROPRIM]: 4.1 nM
CCc1nc(N)nc(N)c1-c1ccc(Cl)c(/N=N/N(CCOC(C)=O)Cc2ccccc2)c1: < 1 nM

Kindly consider the entry below.
So what does the record say about IC50 for CCCOc1cc(NCc2cnc3nc(N)nc(N)c3c2C)cc(OCCC)c1 ?
0.19 nM

---

Biological target: Dihydrofolate reductase (Mycobacterium avium)
Sequence (O30463 whole entry): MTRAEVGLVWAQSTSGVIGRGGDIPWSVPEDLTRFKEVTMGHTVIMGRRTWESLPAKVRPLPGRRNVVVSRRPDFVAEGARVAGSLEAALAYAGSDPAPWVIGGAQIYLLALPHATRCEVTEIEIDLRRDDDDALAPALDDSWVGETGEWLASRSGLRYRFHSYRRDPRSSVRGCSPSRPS
parameter.measured: pIC50
One number for each entry, as −log10 of the molar value.

So what does the record say about pIC50 for Nc1nc(N)c2nc(CN3c4ccccc4C=Cc4cc(OCC(=O)O)ccc43)cnc2n1 ?
8.09

---

Target: Dihydrofolate reductase (Rattus norvegicus)
Assay: Concentration required to inhibit the rat liver Dihydrofolate reductase by 50% was determined; Range: 1100-1500
parameter.measured: pIC50
One number for each entry, as −log10 of the molar value.

So what does the record say about pIC50 for Nc1nc(N)c2nc(CN3c4ccccc4C=Cc4cc(OCCCCC(=O)O)ccc43)cnc2n1 ?
5.89

---

Biological target: Dihydrofolate reductase (Rattus norvegicus, UniProt Q920D2)
Sequence (Q920D2 whole entry): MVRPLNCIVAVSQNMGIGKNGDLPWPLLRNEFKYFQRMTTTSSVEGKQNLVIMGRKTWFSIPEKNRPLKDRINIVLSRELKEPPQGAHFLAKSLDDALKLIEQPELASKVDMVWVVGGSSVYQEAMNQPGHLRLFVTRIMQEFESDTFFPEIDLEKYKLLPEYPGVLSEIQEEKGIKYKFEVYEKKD
parameter.measured: IC50 (µM)
Answers are plain numbers, in µM.

So what does the record say about IC50 for Nc1nc(N)c2nc(CN3c4ccccc4C=Cc4cc(OCCCC(=O)O)ccc43)cnc2n1 ?
1.5

---

Target: Dihydrofolate reductase (Rattus norvegicus, UniProt Q920D2)
parameter.measured: IC50

So what does the record say about IC50 for Nc1nc(N)c2nc(CN3c4ccccc4C=Cc4cc(OCc5ccc(C(=O)O)cc5)ccc43)cnc2n1 ?
580 nM

---

Molecular target: Bifunctional dihydrofolate reductase-thymidylate synthase (Toxoplasma gondii)
Assay: Concentration required to inhibit the Toxoplasma gondii Dihydrofolate reductase by 50% was determined (reported by Hoffman-LaRoche group)
parameter.measured: IC50 (µM)
Numbers only, in µM.

So what does the record say about IC50 for CCOc1cc(Cc2cnc(N)nc2N)cc(OCC)c1-n1cccc1 [EPIROPRIM] ?
0.9

---

Target: Dihydrofolate reductase (Pneumocystis carinii, UniProt P16184)
Sequence (P16184 whole entry): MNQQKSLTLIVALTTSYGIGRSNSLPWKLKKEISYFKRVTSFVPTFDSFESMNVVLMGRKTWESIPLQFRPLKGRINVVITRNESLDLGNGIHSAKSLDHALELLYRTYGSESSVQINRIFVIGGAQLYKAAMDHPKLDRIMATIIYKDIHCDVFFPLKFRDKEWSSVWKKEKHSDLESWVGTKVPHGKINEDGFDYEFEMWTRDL
parameter.measured: pIC50
Numbers only, as −log10 of the molar value.

So what does the record say about pIC50 for Nc1nc(N)c2nc(CN3c4ccccc4C=Cc4cc(OCCCC(=O)O)ccc43)cnc2n1 ?
8.96

---

Biological target: Bifunctional dihydrofolate reductase-thymidylate synthase (Toxoplasma gondii, UniProt Q07422)
parameter.measured: pIC50
Give bare numbers, as −log10 of the molar value.

So what does the record say about pIC50 for Nc1nc(N)c2nc(CN3c4ccccc4C=Cc4cc(OCCCC(=O)O)ccc43)cnc2n1 ?
8.00
